molecular target: BaF3 BRAF-KIAA1549 fusion cells (Homo sapiens); construct: The BRAF-KIAA1549 fusion mutant was subcloned into pMXs-IRES-Blasticidin (RTV-016, Cell Biolabs, San Diego, CA); No tag given; Q9HCM3 (UPF0606 protein KIAA1549); assay: BaF3 BRAF-KIAA1549 fusion cell proliferation assay (CellTiterGlo, 96 hours); format: cell-based; settings: Table A1
Sequence (P15056 whole entry, change not shown, the tested form may be a part): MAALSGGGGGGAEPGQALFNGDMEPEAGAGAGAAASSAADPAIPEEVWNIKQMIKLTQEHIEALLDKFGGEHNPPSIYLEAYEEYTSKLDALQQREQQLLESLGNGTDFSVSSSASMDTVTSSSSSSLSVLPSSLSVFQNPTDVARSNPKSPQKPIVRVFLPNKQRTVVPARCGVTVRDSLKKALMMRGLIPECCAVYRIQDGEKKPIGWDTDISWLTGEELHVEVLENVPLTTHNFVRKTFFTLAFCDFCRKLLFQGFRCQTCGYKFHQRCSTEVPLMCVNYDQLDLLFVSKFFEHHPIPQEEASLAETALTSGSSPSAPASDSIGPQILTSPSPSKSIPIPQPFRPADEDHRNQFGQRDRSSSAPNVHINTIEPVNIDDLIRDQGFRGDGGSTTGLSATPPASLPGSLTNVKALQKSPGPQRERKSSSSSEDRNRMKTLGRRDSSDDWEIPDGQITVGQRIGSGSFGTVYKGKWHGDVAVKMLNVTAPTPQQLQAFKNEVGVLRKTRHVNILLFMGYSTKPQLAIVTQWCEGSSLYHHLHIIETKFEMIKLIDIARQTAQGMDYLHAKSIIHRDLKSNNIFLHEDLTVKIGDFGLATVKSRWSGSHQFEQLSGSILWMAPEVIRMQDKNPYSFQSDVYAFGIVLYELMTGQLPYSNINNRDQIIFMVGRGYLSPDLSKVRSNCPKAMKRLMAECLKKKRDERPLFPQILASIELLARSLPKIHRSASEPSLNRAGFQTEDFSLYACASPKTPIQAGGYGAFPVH

| compound | GI50 |
| --- | --- |
| CNc1cc2ncc(-c3cc(NC(=O)c4ccnc(C5CC(F)(F)C5)c4)ccc3C)cc2cn1 | < 0.02 µM |
| CNc1cc2ncc(-c3cc(NC(=O)c4cc(C(C)(F)F)ccn4)cnc3C)cc2cn1 | 0.02 to 0.1 µM |
| CNc1cc2ncc(-c3cc(NC(=O)c4ccc(OC(F)F)cn4)cnc3C)cc2cn1 | ≥ 0.5 µM |
| CNc1cc2ncc(-c3cc(NC(=O)c4cc(C(C)(C)C#N)ccn4)cc(F)c3F)cc2cn1 | 0.02 to 0.1 µM |
| CNc1cc2ncc(-c3cc(NC(=O)c4cc(C(C)(F)F)ccn4)ccc3C)cc2cn1 | 0.02 to 0.1 µM |
| CNc1cc2ncc(-c3cc(NC(=O)C[C@H]4C[C@H](C(F)(F)F)CCO4)cnc3C)cc2cn1 (single isomer, unassigned) | 0.1 to 0.5 µM |
| CNc1cc2ncc(-c3cc(F)c(F)c(NC(=O)c4cc(C(C)(C)C#N)ccn4)c3)cc2cn1 | 0.1 to 0.5 µM |

// provenance: patent US20250017914A1
